Tested on: NCI-H226 lung
Test name: NCI tumour cell line growth inhibition, 48 h
Where a SMILES comes first, the peptide text is derived from it. [ ]: non-standard residue; d: D form.
Recorded TGI for the following compounds

Compound	TGI
CC(C)C[C@H](NC(=O)[C@H](CC(C)C)NC(=O)[C@@H](Cc1c[nH]c2ccccc12)NC(=O)[C@H](Cc1ccccc1)NC(=O)[C@@H](Cc1c[nH]c2ccccc12)NC(=O)[C@H](CCC(N)=O)NC(=O)[C@@H](CCC(N)=O)NC(=O)[C@@H]1CCCN1C(=O)[C@@H](CCCCN)NC(=O)[C@H]1CCCN1C(=O)[C@H](N)CCCN=C(N)N)C(N)=O (H-[dR][dP][dK]P[dQ]Q[dW]F[dW]LL-NH2)	> 100 µM
N#Cc1ccc(-c2ccc(Cl)cc2)n(C2OC(CO)C(O)C(O)C2O)c1=S (stereo not given)	> 100 µM
[N-]=[N+]=C(C(=O)CN1CCCC1=O)S(=O)(=O)c1ccccc1	> 100 µM
COC(=O)NC(Cc1ccccc1)NC(=O)OC(C)(C)C (stereo not given)	> 100 µM

API: the following record is the query input.
Query CC1=C(CCC(C)CO)O[C@H]2C[C@H]3[C@@H]4CC[C@H]5C[C@@H](O)CC[C@]5(C)[C@H]4CC(=O)[C@]3(C)[C@@H]12 (stereo not given in full) yields TGI of > 82.2 µM

----------
Tested on: ACHN renal
Test name: NCI tumour cell line growth inhibition, 48 h
Recorded TGI for the following molecules

Observe how each entry below is paired with its result.
> print(dat)
                                   molecule  measurement.label  measured.value
1  CCOC(=O)c1ccc2nc3n(c2c1)C(c1c(F)cccc1F)SC3 (stereo not drawn)                TGI        > 100 µM
2  CC(=O)OC1CC2(C)C(=CC1C1SCCS1)CCC1C2CCC2(C)C(OC(C)=O)CCC12 (stereo not drawn)                TGI        > 100 µM

Query `CCOc1ccc2c(c1)C(/C(C(Cl)=C(Cl)Cl)=[N+](/[O-])OC(=O)c1ccccc1)=N2` yields TGI of > 100 µM

----------
System: SR leukemia
Test name: NCI tumour cell line growth inhibition, 48 h
Measurement label: TGI

Compound	Measured value
CCOC(=O)C1=C(Nc2ccc(OC)cc2)C(N)=NC1=N	> 100 µM
CC(C)(C)OC(=O)N1C(=O)C2CCCC21 (stereo not drawn)	> 100 µM
COc1ccc(/C(=N/O)c2ccccc2C2=Nc3ccccc3C(NCc3ccccc3)O2)cc1C (stereo not drawn)	> 100 µM

Query COC1C(O)C(C)OC(O[C@H]2CC[C@@]3(C)C(CC[C@@H]4[C@@H]3CC[C@]3(C)[C@@H](C(C)OC5OC(CO)C(O)C(O)C5O)CC[C@]43O)C2)C1O (stereo partly drawn) yields TGI of > 25 µM

Query C/C(=N\N=C(N)N)C(CN1CCOCC1)C(c1ccccc1)c1c(O)c2ccccc2oc1=O (stereo not drawn) yields TGI of > 100 µM

Query `CCOC(=O)c1nc2ccccc2nc1Nc1ccc(C(=O)OC)s1` yields TGI of > 100 µM

Query `N#C/C(=C\c1ccc[nH]1)c1cc(-c2ccc(Cl)cc2)nn1-c1ccccc1` yields TGI of 6.28 µM

Query `COc1cc(/C=C2\[C@@H]3NC(Cc4c(OC)c(C)c(OC)c(OC)c43)C(=O)N2Cc2ccccc2)c(OC)c(C)c1OC` yields TGI of 62.8 µM

Query `O=c1c(O)c(-c2ccccc2)oc2c(CP(=O)(O)O)cccc12` yields TGI of > 100 µM
